Below, each of the molecules is paired with its reported EC50 value.
Biological target: Motilin Receptor (Oryctolagus cuniculus)
Construct: strips of longitudinal smooth muscle were sliced from the segments; from tissue; host or cells: rabbit duodenum longitudinal smooth muscle strips
Sequence (G1T803 1-400): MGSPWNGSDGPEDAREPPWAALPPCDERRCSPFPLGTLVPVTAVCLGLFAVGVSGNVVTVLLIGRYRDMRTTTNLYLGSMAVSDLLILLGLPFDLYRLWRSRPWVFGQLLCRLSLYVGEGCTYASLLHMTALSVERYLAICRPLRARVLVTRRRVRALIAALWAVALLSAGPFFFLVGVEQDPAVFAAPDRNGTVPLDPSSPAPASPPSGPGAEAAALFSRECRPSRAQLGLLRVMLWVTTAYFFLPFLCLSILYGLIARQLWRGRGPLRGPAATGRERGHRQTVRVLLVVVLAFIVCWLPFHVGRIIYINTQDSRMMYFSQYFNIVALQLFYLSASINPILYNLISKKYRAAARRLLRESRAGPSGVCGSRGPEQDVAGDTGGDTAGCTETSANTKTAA
Test: Tissue based assay for motilin agonist potency (rabbit duodenum contractility)
Type: cell-based
Conditions: rabbit duodenum strips, contraction normalized to 1 μM carbachol; read-out: Motilin Receptor Agonist Activity (EC50)
Express the reported value numerically, then name its unit.

Worked cases, EC50 given:
smiles-code	EC50
CC[C@H]1OC(=O)[C@H](C)[C@@H](O[C@H]2C[C@@](C)(OC)[C@@H](O)[C@H](C)O2)[C@H](C)[C@@H](O[C@@H]2O[C@H](C)C[C@H](N(C)C3CCC3)[C@H]2O)[C@](C)(O)C[C@@H](C)[C@H](NS(=O)(=O)C2CC2)[C@H](C)[C@@H](O)[C@]1(C)O	340 nM
CC[C@H]1OC(=O)[C@H](C)[C@@H](O[C@H]2C[C@@](C)(OC)[C@@H](O)[C@H](C)O2)[C@H](C)[C@@H](O[C@@H]2O[C@H](C)C[C@H](N(C)C(C)C)[C@H]2O)[C@](C)(O)C[C@@H](C)[C@H](OCC(=O)NC2CCOCC2)[C@H](C)[C@@H](O)[C@]1(C)O	120 nM

If you can, please state the reported EC50 value of CC[C@H]1OC(=O)[C@H](C)[C@@H](O[C@H]2C[C@@](C)(OC)[C@@H](O)[C@H](C)O2)[C@H](C)[C@@H](O[C@@H]2O[C@H](C)C[C@H](N(C)C(C)C)[C@H]2O)[C@](C)(O)C[C@@H](C)[C@H](OCC(=O)NCCN2CCOCC2)[C@H](C)[C@@H](O)[C@]1(C)O .
140 nM

If you can, please state the reported EC50 value of CC[C@H]1OC(=O)[C@H](C)[C@@H](O[C@H]2C[C@@](C)(OC)C[C@H](C)O2)[C@H](C)[C@@H](O[C@@H]2O[C@H](C)C[C@H](N(C)C(C)C)[C@H]2O)[C@](C)(O)C[C@@H](C)[C@H](OCC(=O)NC)[C@H](C)[C@@H](O)[C@]1(C)O .
17 nM

If you can, please state the reported EC50 value of CCC(=O)O[C@@H]1[C@H](C)[C@@H](O)[C@](C)(O)[C@@H](CC)OC(=O)[C@H](C)[C@@H](O[C@H]2C[C@@](C)(OC)[C@@H](O)[C@H](C)O2)[C@H](C)[C@@H](O[C@@H]2O[C@H](C)C[C@H](N(C)C3CCC3)[C@H]2O)[C@](C)(O)C[C@H]1C .
1200 nM

If you can, please state the reported EC50 value of CC[C@H]1OC(=O)[C@H](C)[C@@H](O[C@H]2C[C@@](C)(OC)[C@@H](O)[C@H](C)O2)[C@H](C)[C@@H](O[C@@H]2O[C@H](C)C[C@H](N(C)C(C)C)[C@H]2O)[C@](C)(O)C[C@@H](C)[C@H](OCC(=O)O)[C@H](C)[C@@H](O)[C@]1(C)O .
150 nM

If you can, please state the reported EC50 value of CC[C@H]1OC(=O)[C@H](C)[C@@H](O[C@H]2C[C@@](C)(OC)[C@@H](O)[C@H](C)O2)[C@H](C)[C@@H](O[C@@H]2O[C@H](C)C[C@H](N(C)C(C)C)[C@H]2O)[C@](C)(O)C[C@@H](C)[C@H](OCC(=O)Nc2cnccn2)[C@H](C)[C@@H](O)[C@]1(C)O .
60 nM
